- assay.system: T1, interleukin-23 receptor (IL-23R), Q5VWK5
- T1 chain: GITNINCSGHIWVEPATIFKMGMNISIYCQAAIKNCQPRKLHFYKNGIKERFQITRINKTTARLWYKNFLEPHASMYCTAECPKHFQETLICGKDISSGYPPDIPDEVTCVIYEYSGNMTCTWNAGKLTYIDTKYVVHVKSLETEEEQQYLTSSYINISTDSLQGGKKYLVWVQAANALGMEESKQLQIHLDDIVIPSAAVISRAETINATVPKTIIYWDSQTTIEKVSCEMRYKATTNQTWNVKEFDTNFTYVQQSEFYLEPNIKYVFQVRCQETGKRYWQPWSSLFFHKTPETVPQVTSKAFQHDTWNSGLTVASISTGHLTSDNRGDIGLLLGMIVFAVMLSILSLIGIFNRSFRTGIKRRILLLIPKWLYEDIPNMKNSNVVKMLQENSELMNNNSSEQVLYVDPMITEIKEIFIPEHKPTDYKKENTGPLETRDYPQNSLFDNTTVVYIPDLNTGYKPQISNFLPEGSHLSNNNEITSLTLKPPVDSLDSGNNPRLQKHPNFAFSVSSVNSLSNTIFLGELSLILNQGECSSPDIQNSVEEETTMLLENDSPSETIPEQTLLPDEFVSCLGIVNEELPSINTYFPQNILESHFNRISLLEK
- method.summary: cell-based or functional assay
Starred links: 1 amine or outer side, 2 acyl side, 3 side chain; linkers in the order of their positions; H or OH if unused. Positions of bridges follow the written chain, without caps; N, C: chain ends. Non-standard residues stand in square brackets, D forms with d. No end group written: not given here. AEF(G) = 2-amino-3-(4-(2-guanidinoethoxy)phenyl)propanoic acid, N=C(N)NCCOc1ccc(C[C@H](N[*:1])C(=O)[*:2])cc1; X7 = 2‑amino‑3‑(5-methylpyridin-3-yl)propanoic acid, Cc1cncc(CC(N[*:1])C(=O)[*:2])c1; 2Nal(6-OH) = N[C@@H](Cc1ccc2cc(O)ccc2c1)C(=O)O; Trp(7-Me) = Cc1cccc2c(C[C@H](N)C(=O)O)c[nH]c12; AEF = NCCOc1ccc(C[C@H](N)C(=O)O)cc1; 3Pal = N[C@@H](Cc1cccnc1)C(=O)O; Lipidated = not defined here; Pen = CC(C)(S)[C@H](N)C(=O)O; Thp = NC1(C(=O)O)CCOCC1; Sar = CNCC(=O)O
metric: IL23R Reporter Assay IC50

Req: IL23R Reporter Assay IC50 lookup needed for [Pen]NT[Trp(7-Me)]K(Lipidated)[Pen][5‑(4-(2-amino-2-carboxyethyl)phenoxy)‑N,N,N‑trimethylpentan‑1‑aminium][2‑amino‑3‑(6-hydroxynaphthalen-2-yl)propanoic acid][Thp]K(Ac)N[3Pal][Sar] (disulfide 1-6 (inferred); ends not checked; also: K5 lipidated lysine, lipid not given here) [SEQ ID NO: 183] , thanks.
Resp: > 100 nM

Req: Another: [Pen]NT[Trp(7-Me)]K[Pen][AEF][2Nal(6-OH)][Thp]K(Ac)N[3Pal][Sar] (disulfide 1-6 (inferred); ends not checked; also: K5: lipidated lysine, lipid not given here) [SEQ ID NO: 130]
Resp: > 100 nM

Req: Same lookup for R[Pen]NT[Trp(7-Me)]K(Ac)[Pen][AEF(G)][2Nal(6-OH)][Thp]EN[3Pal][Sar] (ends and bridges not checked) [SEQ ID NO: 32] , please.
Resp: < 10 nM

Req: Next up: R[Pen]NT[Trp(7-Me)]K(Ac)[Pen][5‑(4-(2-amino-2-carboxyethyl)phenoxy)‑N,N,N‑trimethylpentan‑1‑aminium][2‑amino‑3‑(6-hydroxynaphthalen-2-yl)propanoic acid][Thp]EN[X7][Sar] (disulfide 2-7 (inferred); ends not checked) [SEQ ID NO: 48]
Resp: < 10 nM

Req: How about R[Pen]NT[Trp(7-Me)]K(Ac)[Pen][5‑(4-(2-amino-2-carboxyethyl)phenoxy)‑N,N,N‑trimethylpentan‑1‑aminium][2Nal(6-OH)][Thp]K(Ac)N[3Pal][Sar] (disulfide 2-7 (inferred); ends not checked) [SEQ ID NO: 58] ?
Resp: < 10 nM

Req: Field entry: [Pen]NT[Trp(7-Me)]K(Ac)[Pen][2‑amino‑3‑(4-(2-aminoethoxy)phenyl)propanoic acid][2‑amino‑3‑(6-hydroxynaphthalen-2-yl)propanoic acid][Thp]EN[3Pal][Sar] (not fully specified (bridges); ends and bridges not checked) [SEQ ID NO: 380]
Resp: < 10 nM
